- target or test system: human type 1 glycine transporter (GlyT1) (Homo sapiens, UniProt P48067)
- Construct: T98G cells (glioma cells) expressing human type 1 glycine transporter (GlyT1) were used
- experimental details: Glycine uptake inhibition experiment ([3H]glycine uptake)
- Type: cell-based
- condition details: GlyT1
quantity: pIC50
By convention, pIC50 is the negative base-10 log of a molar concentration.

Check out these entries, answers already filled in.
{"molecule": "O=C(NC(c1cccc(Cl)n1)[C@]1(O)CC[C@@H](F)CC1)c1cccc(C(F)(F)F)c1Cl (single isomer, unassigned)", "quantity": "pIC50", "readout value": 7.09}
{"molecule": "O=C(NC(c1ccccn1)[C@]1(O)CC[C@@H](F)CC1)c1nccc(C(F)(F)F)c1Cl (single isomer, unassigned)", "quantity": "pIC50", "readout value": 6.00}
{"molecule": "O=C(NC(c1ccc(F)cc1)C1(O)CCCC1)c1nccc(C(F)(F)F)c1Cl (single isomer, unassigned) [Compound 58]", "quantity": "pIC50", "readout value": 6.12}
{"molecule": "O=C(NC(c1cccc(Cl)n1)C1(O)CCC(F)(F)CC1)c1cc(C(F)(F)F)ncc1Cl (single isomer, unassigned)", "quantity": "pIC50", "readout value": 6.82}
{"molecule": "O=C1CCC(O)(C(NC(=O)c2nccc(C(F)(F)F)c2Cl)c2cccc(Cl)c2)C1 (stereo not drawn)", "quantity": "pIC50", "readout value": 5.96}

Any idea what pIC50 came out for CCn1cc(-c2cccc(C(NC(=O)c3cccc(F)c3Cl)C3(O)CCC(F)(F)CC3)c2)cn1 (stereo not drawn) on human type 1 glycine transporter (GlyT1) (Homo sapiens, UniProt P48067)? 5.92

* * *

- target or test system: human type 1 glycine transporter (GlyT1) (Homo sapiens, UniProt P48067)
- Construct: T98G cells (glioma cells) expressing human type 1 glycine transporter (GlyT1) were used
- experimental details: Glycine uptake inhibition experiment ([3H]glycine uptake)
- Format: cell-based
- condition details: GlyT1
Below, each entry is listed alongside its reported pIC50.
# pIC50 = -log10(concentration in molar units)

{"molecule": "O=C(NC(c1cccc(F)c1Cl)[C@]1(O)CC[C@@H](F)CC1)c1ncc(C(F)(F)F)cc1Cl (single isomer, unassigned)", "pIC50": 6.00}
{"molecule": "CCn1cc(-c2cccc(C(NC(=O)c3cccc(C(F)(F)F)c3F)C3(O)CCC(F)(F)CC3)c2)cn1 (stereo not shown)", "pIC50": 5.82}
{"molecule": "CCn1cc(-c2cccc(C(NC(=O)c3ccc(C(F)(F)F)cc3C)C3(O)CCC(F)(F)CC3)c2)cn1 (stereo not shown)", "pIC50": 6.07}

Lab note: next molecule to report on.
What value of pIC50 has been recorded for this entry: O=C(N[C@@H](c1cccc(Br)c1)C1(O)CCCC1)c1nccc(C(F)(F)F)c1-n1nccn1 5.92
